Target: Voltage-gated inwardly rectifying potassium channel KCNH2 (Homo sapiens, UniProt Q12809)
Sequence (Q12809 whole entry): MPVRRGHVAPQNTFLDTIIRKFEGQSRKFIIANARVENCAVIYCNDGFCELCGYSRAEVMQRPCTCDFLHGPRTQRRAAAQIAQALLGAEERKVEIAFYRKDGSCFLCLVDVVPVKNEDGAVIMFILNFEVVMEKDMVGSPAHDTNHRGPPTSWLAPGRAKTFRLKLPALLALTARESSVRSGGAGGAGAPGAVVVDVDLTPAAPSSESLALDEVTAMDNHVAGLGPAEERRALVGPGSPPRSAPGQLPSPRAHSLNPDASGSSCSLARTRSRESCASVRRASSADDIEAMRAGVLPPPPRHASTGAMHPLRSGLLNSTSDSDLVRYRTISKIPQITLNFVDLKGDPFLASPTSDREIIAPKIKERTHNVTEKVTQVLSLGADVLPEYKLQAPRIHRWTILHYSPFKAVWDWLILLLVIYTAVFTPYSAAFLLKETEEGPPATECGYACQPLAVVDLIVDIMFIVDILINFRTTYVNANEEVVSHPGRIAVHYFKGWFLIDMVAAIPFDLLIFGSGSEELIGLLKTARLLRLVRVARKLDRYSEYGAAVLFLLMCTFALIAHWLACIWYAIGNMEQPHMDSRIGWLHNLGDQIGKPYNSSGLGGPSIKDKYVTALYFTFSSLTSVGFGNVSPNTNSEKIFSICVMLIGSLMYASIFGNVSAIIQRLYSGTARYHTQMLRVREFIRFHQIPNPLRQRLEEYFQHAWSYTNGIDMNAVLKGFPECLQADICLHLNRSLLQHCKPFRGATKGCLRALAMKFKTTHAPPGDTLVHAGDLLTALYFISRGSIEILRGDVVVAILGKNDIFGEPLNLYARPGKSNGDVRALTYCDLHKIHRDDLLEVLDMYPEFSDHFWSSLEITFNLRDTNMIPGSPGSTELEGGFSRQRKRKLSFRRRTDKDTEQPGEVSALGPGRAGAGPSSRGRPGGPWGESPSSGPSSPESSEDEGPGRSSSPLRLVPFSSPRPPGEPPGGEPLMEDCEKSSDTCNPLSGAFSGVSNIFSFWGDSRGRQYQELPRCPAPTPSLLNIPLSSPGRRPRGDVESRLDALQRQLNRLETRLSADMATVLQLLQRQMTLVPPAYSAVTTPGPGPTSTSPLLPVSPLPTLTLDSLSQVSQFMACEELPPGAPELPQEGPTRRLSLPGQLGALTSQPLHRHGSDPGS
Assay: Inhibition of human ERG by patch clamp method
pIC50: −log10 of the molar value.
Reported property: pIC50

Value of measured pIC50 for the entry `C[C@H]1Cc2c([nH]c3cc(Cl)c(F)cc23)[C@@]2(N1)C(=O)Nc1ccc(Cl)cc12` : < 4.52

----------
Molecular target: Alpha-1A adrenergic receptor (Homo sapiens)
Sequence (P35348 whole entry): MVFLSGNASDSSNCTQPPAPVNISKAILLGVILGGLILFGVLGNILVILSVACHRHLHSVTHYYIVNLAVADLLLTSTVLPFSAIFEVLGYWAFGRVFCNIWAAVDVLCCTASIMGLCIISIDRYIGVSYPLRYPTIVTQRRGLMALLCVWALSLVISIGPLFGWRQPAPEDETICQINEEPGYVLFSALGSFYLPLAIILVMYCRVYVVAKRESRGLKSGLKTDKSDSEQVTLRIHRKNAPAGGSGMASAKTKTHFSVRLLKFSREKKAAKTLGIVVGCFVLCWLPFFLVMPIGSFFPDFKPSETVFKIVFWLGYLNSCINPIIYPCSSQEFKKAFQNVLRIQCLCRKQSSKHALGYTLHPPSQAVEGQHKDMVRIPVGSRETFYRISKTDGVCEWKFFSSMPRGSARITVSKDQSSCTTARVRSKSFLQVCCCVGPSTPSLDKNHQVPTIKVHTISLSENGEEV
Assay: Binding affinity to human recombinant alpha 1a receptor
Reported property: IC50

The compound identified as `C[C@H]1Cc2c([nH]c3cc(Cl)c(F)cc23)[C@@]2(N1)C(=O)Nc1ccc(Cl)cc12` registered its IC50 at > 10 µM
